Biological target: HIV-I reverse transcriptase (Human immunodeficiency virus type 1 group M subtype B, UniProt P04585)
measurementType: Ki (nM)

C[C@H](Cn1cnc2c(N)ncnc21)OCP(=O)(O)O [MT-4S]: 0.9
